As an illustration, consider measured IC50 for molecules on Cytochrome P450 2D6 (Homo sapiens, UniProt P10635).
Sequence (P10635 whole entry): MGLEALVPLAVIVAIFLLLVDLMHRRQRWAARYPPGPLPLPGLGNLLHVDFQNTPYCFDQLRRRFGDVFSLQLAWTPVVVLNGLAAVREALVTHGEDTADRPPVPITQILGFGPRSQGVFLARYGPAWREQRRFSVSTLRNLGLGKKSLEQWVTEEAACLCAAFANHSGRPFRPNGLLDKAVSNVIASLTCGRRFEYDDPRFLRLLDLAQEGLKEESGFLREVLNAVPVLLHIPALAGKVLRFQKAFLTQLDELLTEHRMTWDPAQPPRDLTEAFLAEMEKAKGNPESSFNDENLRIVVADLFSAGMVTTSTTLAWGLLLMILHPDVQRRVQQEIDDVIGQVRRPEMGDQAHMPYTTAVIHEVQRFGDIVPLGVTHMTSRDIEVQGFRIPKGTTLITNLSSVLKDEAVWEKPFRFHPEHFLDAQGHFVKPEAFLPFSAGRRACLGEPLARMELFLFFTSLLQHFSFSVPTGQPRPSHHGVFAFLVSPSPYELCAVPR

Guide cases for IC50, answers given:
molecule="C/C1=C\\CC[C@@]2(C)O[C@@H]2CC(C)(C)/C=C/C1=O [ZERUMBONE EPOXIDE]" observed_measurement="> 100 µM"
molecule=CC(=O)O[C@@H]1[C@@H](O)[C@H](C)O[C@@H](Oc2c(-c3ccc(O)cc3)oc3cc(O)cc(O)c3c2=O)[C@@H]1OC(C)=O observed_measurement="> 100 µM"

Consider now this further molecule.
Query :: Quick check: IC50 of C/C1=C\CC(C)(C)/C=C/C(=O)/C(C)=C/CC1 [ZERUMBONE] ?
Result :: > 100 µM
